The reported measurements were obtained from PubChem BioAssay AID1347416.

Test: qHTS Validation assay for Inhibitors of Plasmodium falciparum Dd2 growth in vitro; further: nearly all actives have a fitted effect of over 70% in size
Settings: P. falciparum Dd2 in RBCs, SYBR Green growth, 72 h; series mostly up to 28.7 µM
In all, about 4,100 compounds went through this assay and about 1,600 (39%) were called active. Another 25% or so got no clear call; they are omitted. The call rests on the fitted dose curve; in most records, active means well fitted inhibition curve with a large enough effect; inconclusive means small, poorly fitted or top-dose-only effect; inactive means no such curve, though single readings can be large or run the other way. The list shows a part of the results.
Classes used: active, inactive

Compound	Answer Label
COc1cc(Cn2nnc3ccccc32)cc(Br)c1O	inactive
CC(C)(C)OC(=O)N1CCC(CC2CC(c3ccccc3)=NO2)(C(=O)NCc2ccccc2)CC1 (stereo unspecified)	active
CCOC(=O)Cc1csc(NC(=S)NC(=O)c2ccc(C)cc2)n1	inactive
COCCNC(=O)C1COC2(CCN(C(=O)c3ccc(Cl)cc3)CC2)N1C(=O)c1ccccc1C (stereo unspecified)	inactive
Cc1nc([C@@H]2CN(C(=O)c3nccc4ccccc34)C[C@H]2C(N)=O)n[nH]1	inactive
O=C(C1CC1)N(Cc1nc2ccccc2c(=O)[nH]1)Cc1cccs1	inactive
CCN1CCN(c2nc(SC)nc3sc4c(c23)CC(C)(C)OC4)CC1	inactive
COc1ccc(CN[C@@H]2C=C[C@@H](c3c(C)nn(-c4ccc(OC)cc4)c3C)C2)cc1	active
c1ccc(-[n+]2nc(Nc3cccc4ccccc34)sc2-c2c3ccccc3cc3ccccc23)cc1	active
Cc1ccccc1CNC(=O)CC1C(=O)NCCN1Cc1c(F)cccc1Cl (stereo unspecified)	inactive
CN1CCC(NCCC(c2ccc(F)cc2)c2ccc(Cl)cc2)CC1 (stereo unspecified)	active
CC1(C)Cc2c(c(N3CCOCC3)nc3snc(Br)c23)CO1	active
O=C(NC1C[C@H]2CC[C@@H](C1)N2C(=O)c1ccco1)c1ccncc1 (stereo partly specified)	inactive
Cc1cc(Cl)ccc1-c1ccc(CNC2CN(C(=O)OC(C)(C)C)C2)cc1	inactive
Cc1nc(CN2C(=O)OC3(CCN(C(=O)c4ccc(Oc5ccccc5)cc4)CC3)C2(C)c2ccccc2)cs1 (stereo unspecified)	active
COc1ccc(-n2nc(C)c([C@@H]3C=C[C@@H](NCc4ccc(F)cc4)C3)c2C)cc1	active
Nc1ccc2nc(-c3cccs3)[nH]c2c1	inactive
CCOc1ccc(NC(=O)Nc2cc(OCC(F)(F)F)cc(OCC(F)(F)F)c2)cc1	active
COc1ccc(/C(C)=N/NC(=S)NCCc2ccccc2)c(O)c1	active
CCOc1cc(C(=O)N2CCC(CC3CC(c4ccc(Cl)cc4)=NO3)(C(=O)NCC3CCCCC3)CC2)cc(OCC)c1OCC (stereo unspecified)	active
O=C1CCCCN1Cc1nc(C2CCOC2)no1 (stereo unspecified)	inactive
CC(C)CCNC(=O)c1ccc2c(c1)CC(=O)N2Cc1ccccc1	inactive
CCCCN(CC)CCCNC(=O)c1ccc2c(c1)N(Cc1ccc(C)cc1)C(=O)c1ccccc1S2	active
CCNC(=O)N1CC[C@H]2CC(=O)N([C@H](C(N)=O)C(C)C)CC[C@H]2C1	inactive
Cc1nn(-c2ccc(C(C)(C)C)cc2)c(C)c1[C@@H]1C=C[C@@H](NC(=O)c2ccco2)C1	active
CC1(C)C(=O)N(CC2CCOCC2)[C@H]2CN(Cc3ccccc3O)C[C@H]2[S+]1(=O)[O-]	inactive
Fc1ccc(F)c(Nc2c3c(nc4ccc(Cl)cc24)CCC3)c1	inactive
Cc1nn(-c2cccc(Br)c2)c(C)c1[C@@H]1C=C[C@@H](NC(=O)c2cccs2)C1	inactive
O=C(CCl)N(c1ccccc1)c1c[nH]c2ccccc12	active
OCc1ccc(CN2CCCC(CCc3c(F)cccc3F)C2)o1 (stereo unspecified)	active
CN(Cc1ccccc1F)C1CCc2ccccc21 (stereo unspecified)	inactive
CC(C)CC(NC(=O)C(NC(=O)OC(C)(C)C)C(C)C)C(=O)NC(CCC(=O)OCc1ccccc1)C(N)=O (stereo unspecified)	active
COc1ccc2[nH]c(C)c(CCN(Cc3cccs3)C(=S)Nc3ccccc3)c2c1	active
Cc1cc(Nc2nc3ccccc3nc2Cl)n(-c2ccccc2C)n1	active
COc1ccc2[nH]c(C)c(CCN(Cc3cccs3)C(=S)Nc3ccc(F)cc3)c2c1	active
Cc1c(C#N)c2ccccc2n1CCOc1ccccc1F	active
COc1ccc(/C=C/C(=O)Nc2ccc3nc4c(c(Nc5ccccc5OC)c3c2)CCCC4)cc1	active
OC(CN1CCC(Cc2ccc(F)cc2)CC1)c1ccc(Cl)cc1 (stereo unspecified)	inactive
O=C(NCc1ccccc1)N1CCC(c2nc(C3CCOCC3)no2)CC1	inactive
CC(C)c1ccccc1NC(=O)C(Cc1c[nH]c2ccccc12)NC(=O)OC(C)(C)C (stereo unspecified)	inactive
COc1cc(Br)c(C(C)NC(=O)c2cccc(Br)c2)cc1OC (stereo unspecified)	active

----------
Test: qHTS Validation assay for Inhibitors of Plasmodium falciparum Dd2 growth in vitro; further: nearly all actives have a fitted effect of over 70% in size
Conditions: P. falciparum Dd2 in RBCs, SYBR Green growth, 72 h; series mostly up to 28.7 µM
The whole screen tested about 4,100 compounds, of which about 1,600 (39%) were called active. About 25% were inconclusive and are not listed. Calls come from the whole dose curve; as a rule, active = well fitted inhibition curve with a large enough effect; inconclusive = small, poorly fitted or top-dose-only effect; inactive = no such curve, though single readings can be large or run the other way. The list shows a part of the results.
Classes used: active, inactive

Compound	Answer Label
CNC(=O)c1cnc2c(c1)N(C(=O)Cc1ccc(C(C)C)cc1)CCC2	inactive
Cc1cc(C)c(CN2C(=O)c3ccccc3S(=O)(=O)c3ccc(C(=O)OCC4CCCO4)cc32)c(C)c1 (centres undefined)	active
CC(C)CCNC(=O)c1cnc2c(c1)N(C(=O)Cc1cn(C)c3ccccc13)CCC2	inactive
COC(=O)C1=C(C)NC(C)=C(C(=O)OC(C)(C)CN(C)CCC(c2ccccc2)c2ccccc2)C1c1cccc([N+](=O)[O-])c1 (centres undefined)	active
COc1ccc(S(=O)(=O)N2CCC(CC(=O)NCc3ccccc3)C2)cc1 (centres undefined)	inactive
Cc1ccc(C2Cn3nnc(-c4noc(CNC(=O)c5ccccc5)n4)c3CO2)cc1 (centres undefined)	inactive
COC(=O)C1=C(C)N(c2ccc(OC)cc2)C(C)=C(C(=O)OC)C1c1ccccc1	active
O=C(NCc1ccc2c(c1)OCO2)c1cnc2c(c1)N([S+](=O)([O-])c1cccnc1)CCC2	inactive
Cc1c(C#N)c(N)nc(Cl)c1C#N	inactive

----------
Assay: qHTS Validation assay for Inhibitors of Plasmodium falciparum Dd2 growth in vitro; further: nearly all actives have a fitted effect of over 70% in size
Settings: P. falciparum Dd2 in RBCs, SYBR Green growth, 72 h; series mostly up to 28.7 µM
About 1,600 (39%) of roughly 4,100 compounds were called active. Not shown: some 25% with an inconclusive outcome. Calls come from the whole dose curve; as a rule, active = well fitted inhibition curve with a large enough effect; inconclusive = small, poorly fitted or top-dose-only effect; inactive = no such curve, though single readings can be large or run the other way. The list shows a part of the results.
Classes used: active, inactive

Compound	Answer Label
Cc1noc(C)c1CSc1nc2sc3c(c2c(=O)n1C)CCCC3	active
COc1cccc(CN2CCCC(N3CCN(c4cccc(C(F)(F)F)c4)CC3)C2)c1O (stereo not given)	active
Oc1ccccc1CN1CCCC(N2CCN(c3cccc(C(F)(F)F)c3)CC2)C1 (stereo not given)	active
O=C(NC[C@H]1O[C@@H](CO)[C@@H](O)[C@H]1N1CCN(c2cccc(C(F)(F)F)c2)CC1)c1cccs1	inactive
COc1cccc(C2C3=C(N=c4s/c(=C\c5ccccc5O)c(=O)n42)c2ccccc2CC3)c1OC (stereo not given)	active

----------
Assay: qHTS Validation assay for Inhibitors of Plasmodium falciparum Dd2 growth in vitro; further: nearly all actives have a fitted effect of over 70% in size
Details: P. falciparum Dd2 in RBCs, SYBR Green growth, 72 h; series mostly up to 28.7 µM
About 1,600 (39%) of roughly 4,100 compounds were called active. Inconclusive results (about 25%) are left out. Calls follow the shape of the dose curve; as a rule, active = well fitted inhibition curve with a large enough effect; inconclusive = small, poorly fitted or top-dose-only effect; inactive = no such curve, though single readings can be large or run the other way. Some of the results follow.
Classes used: active, inactive

Molecule	Answer Label
Cc1cc(NC2C3CC4CC(C3)CC2C4)n2nnnc2n1 (configuration not stated)	inactive
Clc1ccc(Cn2ncc3c(N4CCOCC4)ncnc32)cc1	inactive
O=C1CC2(CCN(Cc3cccs3)CC2)Oc2cc(Cl)ccc21	active
CC(C)c1nc2c(c(-c3ccc(O)cc3)n1)CCN(Cc1ccccc1C(F)(F)F)CC2	active
COc1ccc(C(=O)NCc2nnc3c(-c4nc(C(C)C)no4)cccn23)cc1F	inactive
O=C(Nc1ccc(Cl)cc1)N1CCC2(CC1)CCN(Cc1cccs1)c1ccccc1O2	active
Cc1ccc([S+](=O)([O-])N2CCC3(CCN(Cc4cccs4)c4ccccc4O3)CC2)cc1	active
COc1ccc2[nH]c3c(c2c1)CCNC31CCN(C(=O)C(C)(C)C)CC1	inactive
CN(C1CCOCC1)C1CCN(C(=O)c2cccc(Cl)c2)CC1	inactive
Oc1ccc(CNc2ccc(C(F)(F)F)cc2Cl)c2cccnc12	active
COC(=O)c1c(C(=O)OC)c(-c2ccc(C)cc2)n2c1CS(=O)(=O)C2	inactive
CCc1cccc2c(C(CC(=O)N3CCC(C)CC3)c3cccc(C)c3)c[nH]c12 (configuration not stated)	active
O=C(Nc1cc(Cl)ccc1O)c1cc2nc(-c3ccc4c(c3)OCO4)cc(C(F)(F)F)n2n1	active
NNC(=O)CN1C(=O)Nc2ccc(Br)cc2C1c1ccccc1 (configuration not stated)	inactive
COc1ccc(-c2noc(-c3cccn3CC(=O)Nc3ccccc3C)n2)cc1F	active
CCOC(=O)c1cnc(-n2nc(C)cc2C)nc1NC1CCCC1	active
O=C(Nc1ccc2c(N3CCOCC3)ncnc2c1)c1cccc(Cl)c1	active
Cc1ccc(S(=O)(=O)NCc2nc3nc(C)cc(C)n3n2)c(C)c1	inactive
COCC(=O)N1CCC2(CC1)CCN(Cc1cccs1)c1ccccc1O2	inactive
Cc1cc(C)cc(Nc2cc(C)nc3nc(C)nn23)c1	active
COc1ccc(-c2noc(-c3cccn3CC(=O)Nc3ccccc3F)n2)cc1F	active
Cc1cc(C(F)(F)F)nn1CC(=O)NCCc1ncc(C)n1CC1CC1	active
COc1ccc(C(CCN2CCN(c3ccccc3)CC2)c2c(O)cc(OC)cc2OC)cc1 (configuration not stated)	active
O=C1Cc2c(-c3ccc(Oc4ccccc4)cc3)n[nH]c2CN1Cc1ccccc1F	inactive
COc1cc(O)c(C(CCN2CCN(c3ccccc3)CC2)c2ccc(N(C)C)cc2)c(OC)c1 (configuration not stated)	active
Cn1cnc(S(=O)(=O)N2CCCC(Cc3noc(-c4cccnc4)n3)C2)c1 (configuration not stated)	inactive
Cc1cccc2cc(CN(Cc3ccco3)C(c3nnnn3CCc3ccccc3)C(C)C)c(=O)[nH]c12 (configuration not stated)	active
N#CC(=C1CCCC1)c1nc(-c2ccccc2O)cs1	active
COc1ccc(-c2noc(-c3cccn3CC(=O)Nc3cc(C)ccc3C)n2)cc1F	inactive
CCc1cccc(NC(=O)C(Cc2ccccc2)NS(=O)(=O)c2ccc3c(c2)oc(=O)n3C)c1 (configuration not stated)	inactive
CC1=C(C(=O)Nc2ccc(C)cc2C)C(c2ccc(Br)cc2)n2ncc(C(=O)Nc3cccc(C)c3)c2N1 (configuration not stated)	active
Cc1cc(C)n(CC(=O)N2C[C@@H](COc3ccccc3)[C@H](C(N)=O)C2)n1	inactive
CCCCC(=O)NC(c1ccc(C(C)C)cc1)c1ccc2cccnc2c1O (configuration not stated)	active
COc1cccc(C2C(C(=O)Nc3ccc(C)cc3C)=C(C)Nc3c(C(=O)Nc4ccccc4)cnn32)c1 (configuration not stated)	active
Cc1ccc(N=Nc2ccc(O)c3ncccc23)cc1	inactive
O=C(c1[nH]nc2c1COc1ccccc1-2)N1CCC(Cc2nncn2CC2CC2)CC1	inactive
CCOc1ccc(NC(=O)CN2C(=O)NC(C)(c3ccc(OC(F)F)cc3)C2=O)cc1 (configuration not stated)	active
CC1CCC2(CC1)NC(=O)N(CC(=O)Nc1ccc(Cl)cc1)C2=O (configuration not stated)	inactive
COc1ccc(N2C(N)=NC(N)=NC2(C)C)cc1	inactive
Cc1cc(Nc2ccc(Br)c(C)c2)n2nc(C)nc2n1	active
CC1=C(C(=O)Nc2ccc(C)cc2C)C(c2ccc([N+](=O)[O-])cc2)n2ncc(C(=O)Nc3ccc(F)cc3)c2N1 (configuration not stated)	active
Cc1ccccc1C(=O)N1CCC2(CC1)N(c1ccccc1)C(=O)CS2(=O)=O	inactive
